// data source = patent US9120749B2

molecular target: MELK (Homo sapiens, UniProt Q14680); assay: Kinase assay: MELK activity, phosphorylation of FITC-labeled histone H3 peptide measured by IMAP fluorescence polarization; format: biochemical; conditions: 50 micro-M ATP, FITC-labeled histone H3 peptide substrate, IMAP fluorescence polarization; read-out: IC50 (μM) (kinase assay)
Sequence (Q14680 whole entry, looked up): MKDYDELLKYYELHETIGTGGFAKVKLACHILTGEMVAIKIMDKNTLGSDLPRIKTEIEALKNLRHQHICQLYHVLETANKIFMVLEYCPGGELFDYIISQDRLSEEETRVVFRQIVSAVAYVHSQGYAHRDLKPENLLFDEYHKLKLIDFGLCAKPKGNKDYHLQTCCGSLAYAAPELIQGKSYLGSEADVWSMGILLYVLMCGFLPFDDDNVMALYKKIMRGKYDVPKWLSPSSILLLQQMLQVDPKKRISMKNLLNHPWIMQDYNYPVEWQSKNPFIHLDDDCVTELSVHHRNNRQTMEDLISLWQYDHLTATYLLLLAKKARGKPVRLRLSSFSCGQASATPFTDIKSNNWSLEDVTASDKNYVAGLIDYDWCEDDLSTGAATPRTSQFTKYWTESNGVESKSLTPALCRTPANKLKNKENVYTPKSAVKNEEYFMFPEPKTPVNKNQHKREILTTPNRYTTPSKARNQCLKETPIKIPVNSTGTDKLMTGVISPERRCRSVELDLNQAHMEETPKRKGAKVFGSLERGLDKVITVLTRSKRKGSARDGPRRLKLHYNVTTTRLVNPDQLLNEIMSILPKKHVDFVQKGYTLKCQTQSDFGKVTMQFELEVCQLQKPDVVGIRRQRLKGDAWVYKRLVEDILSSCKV
Returns: string. Value is fulfilled if measured IC50 is below 0.004 µM, and not fulfilled if it is greater than or equal to it.

MOLECULE: COc1cc(-c2ccc3ncc(S(C)(=O)=O)c(N4CCC(C(C)N(C)C)CC4)c3c2)cc(Cl)c1O (stereo not shown)
CLASSIFICATION: fulfilled
//
MOLECULE: COc1cc(-c2ccc3ncc(C(=O)C4CC4)c(-c4ccc(CN5CCCC5)cc4)c3c2)cc(Cl)c1O
CLASSIFICATION: not fulfilled
//
MOLECULE: COc1cc(-c2ccc3ncc(C(C)=O)c(Nc4ccc(CN(C)C)cc4)c3c2)cc(Cl)c1O
CLASSIFICATION: fulfilled
//
MOLECULE: COc1cc(-c2ccc3ncc(C(=O)C4CC4)c(Nc4ccc(CN(C)C)cn4)c3c2)cc(Cl)c1O
CLASSIFICATION: not fulfilled
//
MOLECULE: O=C(c1cnc2ccc(-c3ccc(O)c(Cl)c3)cc2c1N1CCC(CN2CCOCC2)CC1)C1CC1
CLASSIFICATION: not fulfilled

* * *

tested on: DU4475 cells; assay: Cell-based assay: anti-proliferative activity, Cell Counting Kit-8, 72 hours (DU4475); conditions: dihydrochloride
Where a name gives a salt, the structure may show the parent alone.

COMPOUND: CCC(=O)c1cnc2ccc(-c3cc(Cl)c(O)c(Cl)c3)cc2c1N[C@H]1CC[C@H](CN(C)C)CC1 [Example 716, dihydrochloride]
IC50 / µM: 0.055
--
COMPOUND: CC(=O)c1cnc2ccc(-c3cc(F)c(O)c(Cl)c3)cc2c1N[C@H]1CC[C@H](CCN(C)C)CC1 [Example 742, dihydrochloride]
IC50 / µM: 0.063

* * *

system: T47D cells; experiment: Cell-based assay: anti-proliferative activity, Cell Counting Kit-8, 72 hours (T47D); details: Homo sapiens, T47D, 72 h
Measured IC50 by item
READOUT_TYPE: IC50 (µM)

COMPOUND: CC(=O)c1cnc2ccc(-c3cc(Cl)c(O)c(Cl)c3)cc2c1Nc1ccc(CN2CCN(C)CC2)cc1 [Example 654]
SYSTEM_NAME: T47D cells
UNIT_LABEL: µM
QUANTITATIVE_READOUT: 0.091

COMPOUND: COc1cc(-c2ccc3ncc(C(=O)C4CC4)c(Nc4ccc(OCCN(C)C)nc4)c3c2)cc(Cl)c1O [Example 712]
SYSTEM_NAME: T47D cells
UNIT_LABEL: µM
QUANTITATIVE_READOUT: 0.31

COMPOUND: C[S+]([O-])c1cnc2ccc(-c3cc(Cl)c(O)c(Cl)c3)cc2c1N[C@H]1CC[C@H](N)CC1 (stereo partly shown) [Example 491]
SYSTEM_NAME: T47D cells
UNIT_LABEL: µM
QUANTITATIVE_READOUT: 7

COMPOUND: O=C(c1cnc2ccc(-c3cc(Cl)c(O)c(Cl)c3)cc2c1N[C@H]1CC[C@H](CN2CCCC2)CC1)C1CC1 [Example 584]
SYSTEM_NAME: T47D cells
UNIT_LABEL: µM
QUANTITATIVE_READOUT: 0.13

* * *

Measured IC50 by item
test system: HT-1197 cells; experiment: Cell-based assay: anti-proliferative activity, Cell Counting Kit-8, 72 hours (HT-1197, negative control without MELK expression); details: Homo sapiens, HT1197, 72 h, HT1197 cells (negative control, no MELK expression), 72 hours
READOUT_TYPE: IC50 (µM)

MOLECULE: Cc1cc(O)c(Cl)cc1-c1ccc2ncc(C(=O)C3CC3)c(N3CCC(CN(C)C)CC3)c2c1
UNIT_LABEL: µM
QUANTITATIVE_READOUT: 7.9

MOLECULE: CC(=O)c1cnc2ccc(-c3cc(Cl)c(O)c(Cl)c3)cc2c1Nc1ccc(NCCN(C)C)nc1
UNIT_LABEL: µM
QUANTITATIVE_READOUT: 24

MOLECULE: COc1cc(-c2ccc3ncc(C(=O)C4CC4)c(N[C@H]4CC[C@H](CN5CCC(N(C)C)C5)CC4)c3c2)cc(Cl)c1O (stereo partly shown)
UNIT_LABEL: µM
QUANTITATIVE_READOUT: 2.6

MOLECULE: CN(C)CC1CCN(c2c(C(=O)C3CCCC3)cnc3ccc(-c4ccc(O)c(Cl)c4)cc23)CC1
UNIT_LABEL: µM
QUANTITATIVE_READOUT: 6.9

MOLECULE: CN1CCN(Cc2ccc(Nc3c(C(=O)C4CC4)cnc4ccc(-c5cc(F)c(O)c(Cl)c5)cc34)cn2)CC1
UNIT_LABEL: µM
QUANTITATIVE_READOUT: 15

MOLECULE: COc1cc(-c2ccc3ncc(C(=O)C(C)C)c(Nc4ccc(N5CCNCC5)nc4)c3c2)cc(Cl)c1O
UNIT_LABEL: µM
QUANTITATIVE_READOUT: 2.4

MOLECULE: O=C(c1cnc2ccc(-c3cc(F)c(O)c(Cl)c3)cc2c1Nc1ccc(N2CCC(O)C2)nc1)C1CC1 (stereo not shown)
UNIT_LABEL: µM
QUANTITATIVE_READOUT: 4.9

* * *

Measured IC50 by item
system: T47D cells; assay: Cell-based assay: anti-proliferative activity, Cell Counting Kit-8, 72 hours (T47D); conditions: Homo sapiens, T47D, 72 h
READOUT_TYPE: IC50 (µM)

COMPOUND: CN1CCN(Cc2ccc(Nc3c(C(=O)C4CC4)cnc4ccc(-c5cc(F)c(O)c(Cl)c5)cc34)cn2)CC1
SYSTEM_NAME: T47D cells
READOUT_TYPE: IC50
QUANTITATIVE_READOUT: 0.88

COMPOUND: O=C(c1cnc2ccc(-c3cc(Cl)c(O)c(Cl)c3)cc2c1N[C@H]1CC[C@H](CN2CC[C@@H](F)C2)CC1)C1CC1
SYSTEM_NAME: T47D cells
READOUT_TYPE: IC50
QUANTITATIVE_READOUT: 0.18

COMPOUND: C=CCN(CC=C)C1(C)CCC(Nc2c(C(=O)C3CC3)cnc3ccc(-c4cc(Cl)c(O)c(Cl)c4)cc23)CC1 (stereo not shown)
SYSTEM_NAME: T47D cells
READOUT_TYPE: IC50
QUANTITATIVE_READOUT: 2.6

COMPOUND: CN(C)Cc1ccc(Nc2c(C(=O)C3CC3)cnc3cc(F)c(-c4cc(F)c(O)c(Cl)c4)cc23)cc1
SYSTEM_NAME: T47D cells
READOUT_TYPE: IC50
QUANTITATIVE_READOUT: 0.42

* * *

tested on: T47D cells; assay: Cell-based assay: anti-proliferative activity, Cell Counting Kit-8, 72 hours (T47D); conditions: Homo sapiens, T47D, 72 h
Where a name gives a salt, the structure may show the parent alone.
Measured IC50 by item
READOUT_TYPE: IC50 (µM)

MOLECULE: CC(=O)c1cnc2ccc(-c3cc(F)c(O)c(Cl)c3)cc2c1N[C@H]1CC[C@H](NC(=O)[C@@H](N)C(C)(C)C)CC1 [Example 914, hydrochloride]
QUANTITATIVE_READOUT: 0.075
--
MOLECULE: CC(=O)c1cnc2ccc(-c3cc(F)c(O)c(Cl)c3)cc2c1N[C@H]1CC[C@H](CN2CCC(N)C2)CC1 (stereo partly drawn) [Example 786, hydrochloride]
QUANTITATIVE_READOUT: 0.07
--
MOLECULE: NC1CCN(c2ccc(Nc3c(C(=O)C4CC4)cnc4ccc(-c5cc(Cl)c(O)c(Cl)c5)cc34)cn2)C1 (stereo not drawn) [Example 575]
QUANTITATIVE_READOUT: 0.028

* * *

target: MELK (Homo sapiens); assay: Kinase assay: MELK activity, phosphorylation of FITC-labeled histone H3 peptide measured by IMAP fluorescence polarization; assay type: biochemical; conditions: 50 micro-M ATP, FITC-labeled histone H3 peptide substrate, IMAP fluorescence polarization; read-out: IC50 (μM) (kinase assay)
Measured IC50 by item

SMILES_STRUCTURE: COc1cc(-c2ccc3ncc(C(=O)C4CC4)c(N[C@H]4CC[C@H](N5CCCC5)CC4)c3c2)cc(Cl)c1O
IC50, µM: 0.0021

SMILES_STRUCTURE: CC(=O)c1cnc2ccc(-c3cc(F)c(O)c(F)c3)cc2c1N[C@H]1CC[C@H](N)CC1
IC50, µM: 0.04

SMILES_STRUCTURE: CCN(CC)[C@H]1CC[C@@H](Nc2c(C(=O)C3CC3)cnc3ccc(-c4cc(Cl)c(O)c(OC)c4)cc23)CC1
IC50, µM: 0.0032

SMILES_STRUCTURE: O=C(c1cnc2ccc(-c3cc(F)c(O)c(Cl)c3)cc2c1N1CCN(CCN2CCCC2)C(=O)C1)C1CC1
IC50, µM: 0.0044
